For each entry below, report its Particle diameter of Preparetion value.
Assay: Average particle diameter of preparation (Zetasizer Nano ZS)
Type: physicochemical
Conditions: average particle diameter of cationic lipid/nucleic acid complex; Example 118 preparation: compound/PEG-DMPE Na/DSPC/cholesterol with apo-b siRNA
One number for each entry, in nm.

CCCCCCCCCCC/C=C\CCCCCO[C@@H]1CN(C)C[C@H]1OCCCCC/C=C\CCCCCCCCCCC ... 139.1
CCCCC/C=C\C/C=C\CCCCCCCC(=O)OCCN(CCOC(=O)CCCCCCC/C=C\C/C=C\CCCCC)C(=O)[C@@H](N)CCCCN ... 135.1
CCCCC/C=C\C/C=C\CCCCCCCCCCOC[C@@H]1CN(C(=O)[C@@H](N)CCCCN)C[C@H]1COCCCCCCCCCC/C=C\C/C=C\CCCCC ... 152.8
CCCCC/C=C\C/C=C\CCCCCCCCO[C@@H]1CN(C)C[C@H]1OCCCCCCCC/C=C\C/C=C\CCCCC ... 153.9
CCCCCCCC/C=C\CCCCCCCCOC[C@@H]1CN(C)C[C@H]1COCCCCCCCC/C=C\CCCCCCCC (relative stereo) ... 139.2

Return reported Particle diameter of Preparetion values for all items listed beneath this line.
1. CCCCCCCC/C=C\CCCCCCCCOCCN(CCOCCCCCCCC/C=C\CCCCCCCC)C(=O)[C@@H](N)CN
2. CCCCCCCC/C=C\CCCCCCCC(=O)O[C@@H]1CNC[C@H]1OC(=O)CCCCCCC/C=C\CCCCCCCC
3. CCCCC/C=C\C/C=C\CCCCCCCCOC[C@@H]1CNC[C@H]1COCCCCCCCC/C=C\C/C=C\CCCCC (relative stereo)

A.
1. 143.9
2. 141.9
3. 133.0
